# system: LIN54 DBD (Homo sapiens, UniProt Q6MZP7 515-646)
# Sequence (Q6MZP7 515-646): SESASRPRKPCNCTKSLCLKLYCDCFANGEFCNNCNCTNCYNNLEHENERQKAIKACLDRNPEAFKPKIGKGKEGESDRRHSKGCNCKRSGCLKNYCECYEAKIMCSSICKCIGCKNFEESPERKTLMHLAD
# assay details: ITC; ITC (25 C) and FP: 20 mM Tris, 150 mM NaCl, 0.1% Tween 20, pH 8.0; NMR: 35 mM MES, 75 mM NaCl, 5% D2O, pH 6.0, 25 C
# experimental conditions: protein: recombinant; tags: N-terminal GST with TEV site, cleaved; blunt
experimental readout: pKd
Lab note: report pKd as minus log10 of the concentration in molar units, number only.

GET /value?item= CHR13 (dsDNA) DNA 1: GAGTTTGAAACTG DNA 2: CAGTTTCAAACTC &field=pKd returns 5.55
